Hello, the source for this data is ChEMBL document CHEMBL1155824, in case you need it.

- System: SF-268
- assay-summary: Cytotoxicity against human SF268 cells
- Type: functional, cell-based
Lab note: compare IC50 with 10 µM, writing Fulfilled if less and Not fulfilled if equal or more.

| compound | classification |
| --- | --- |
| CC(C)C[C@@H]1NC(=O)[C@@H](C)NC(=O)[C@H](Cc2ccccc2)NC(=O)[C@H](CC(C)C)OC(=O)[C@H](Cc2ccccc2)NC1=O | Not fulfilled |
| CC(C)C[C@@H]1NC(=O)[C@@H](CC(C)C)NC(=O)[C@H](Cc2ccccc2)NC(=O)[C@H](CC(C)C)OC(=O)[C@H](C)NC1=O | Fulfilled |
| CC(C)C[C@@H]1NC(=O)[C@H](Cc2ccccc2)NC(=O)[C@H](CC(C)C)NC(=O)[C@@H](CC(C)C)NC(=O)[C@H](Cc2ccccc2)NC1=O | Not fulfilled |
| CC(C)C[C@@H]1NC(=O)[C@@H](CC(C)C)NC(=O)[C@H](Cc2ccccc2)NC(=O)[C@H](C)OC(=O)[C@H](Cc2ccccc2)NC1=O | Not fulfilled |
| CC(=O)O[C@H]1C(=O)[C@@]2(C)[C@H]([C@H](OC(=O)c3ccccc3)[C@]3(O)C[C@H](OC(=O)[C@H](O)[C@@H](NC(=O)c4ccccc4)c4ccccc4)C(C)=C1C3(C)C)[C@]1(OC(C)=O)CO[C@@H]1C[C@@H]2O | Fulfilled |
| CC(C)C[C@@H]1OC(=O)[C@H](Cc2ccccc2)NC(=O)[C@H](C)NC(=O)[C@@H](CC(C)C)NC(=O)[C@H](Cc2ccccc2)NC1=O | Not fulfilled |
| CC(C)C[C@@H]1NC(=O)[C@@H](CC(C)C)NC(=O)[C@H](C)NC(=O)[C@H](CC(C)C)OC(=O)[C@H](Cc2ccccc2)NC1=O | Not fulfilled |
| CC(C)C[C@@H]1NC(=O)[C@@H](CC(C)C)NC(=O)[C@H](Cc2ccccc2)NC(=O)[C@H](CC(C)C)OC(=O)[C@H](Cc2ccccc2)NC1=O [ZYGOSPORAMIDE] | Fulfilled |
